- assay target: human κ opioid receptor (OPRK1) (Homo sapiens, UniProt P41145)
- Construct: expressed in transfected cells; host or cells: CHO-K1
- Sequence (P41145 whole entry): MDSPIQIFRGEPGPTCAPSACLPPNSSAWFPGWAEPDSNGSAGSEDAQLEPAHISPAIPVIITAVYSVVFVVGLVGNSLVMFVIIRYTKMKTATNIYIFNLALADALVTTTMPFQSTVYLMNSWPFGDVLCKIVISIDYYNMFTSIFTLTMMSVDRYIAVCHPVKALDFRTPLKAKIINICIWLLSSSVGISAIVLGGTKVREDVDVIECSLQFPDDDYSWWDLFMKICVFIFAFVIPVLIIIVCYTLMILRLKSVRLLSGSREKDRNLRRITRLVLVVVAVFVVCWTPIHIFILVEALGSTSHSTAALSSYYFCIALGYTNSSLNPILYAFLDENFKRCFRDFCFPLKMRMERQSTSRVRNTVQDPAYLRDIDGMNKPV
- assay comment: Agonist activity: inhibition of forskolin-stimulated cAMP release (HTRF) in CHO-K1 cells stably expressing opioid receptors
- Assay type: cell-based
- study conditions: relative to Difelikefalin = 100%
Where a SMILES comes first, the peptide text is derived from it. Bridges are numbered along the chain shown (N, C = ends). Roman numbers before positions name the chains, in order. [ ]: non-standard residue; d: D form. The star is where a group is joined. X1 = O=C(O)CCCCCCCCCCCCCCCCC(=O)N[C@@H](CCC(=O)NCCOCCOCCOCCOCC(=O)*)C(=O)O; Api = NC1(C(=O)O)CCNCC1
Threshold rule: Relative Activity % greater than or equal to 20% is TRUE; below that, FALSE.

Previously resolved entries follow.
1) CCOc1ccc(C[C@@H](NC(=O)[C@H](N)Cc2ccccc2)C(=O)N[C@H](CC(C)C)C(=O)N[C@H](CCCCN)C(=O)N2CCC(N)(C(=O)NCCOCCOCC(=O)N[C@@H](CCCCNC(=O)COCCOCCOCCOCCOCCNC(=O)CC[C@H](NC(=O)CCCCCCCCCCCCCCCCC(=O)O)C(=O)O)C(N)=O)CC2)cc1 [Compound 9] ... FALSE
2) CCOc1ccc(C[C@@H](NC(=O)[C@H](N)Cc2ccccc2)C(=O)N[C@H](CC(C)C)C(=O)N[C@H](CCCCN)C(=O)N2CCC(N)(C(=O)NCCOCCOCC(=O)N[C@@H](CCCCNC(=O)COCCOCCOCCOCCNC(=O)CC[C@H](NC(=O)CCCCCCCCCCCCCCCCC(=O)O)C(=O)O)C(N)=O)CC2)cc1 [Compound 3] ... TRUE
3) CCOc1ccc(C[C@@H](NC(=O)[C@H](N)Cc2ccccc2)C(=O)N[C@H](CC(C)C)C(=O)N[C@H](CCCCN)C(=O)N2CCC(N)(C(=O)NCCOCC(=O)N[C@@H](CCCCNC(=O)COCCOCCOCCOCCNC(=O)CC[C@H](NC(=O)CCCCCCCCCCCCCCCCC(=O)O)C(=O)O)C(N)=O)CC2)cc1 [Compound 2] ... TRUE
4) CCOc1ccc(C[C@@H](NC(=O)[C@H](N)Cc2ccccc2)C(=O)N[C@H](CC(C)C)C(=O)N[C@H](CCCCN)C(=O)N2CCC(N)(C(=O)NCC(=O)NCC(=O)N[C@@H](CCCCNC(=O)COCCOCCOCCOCCNC(=O)CC[C@H](NC(=O)CCCCCCCCCCCCCCCCC(=O)O)C(=O)O)C(N)=O)CC2)cc1 [Compound 11] (I: H-[Api]GGK(X1)-NH2 / II: H-[dF][dY](Et)[dL][dK]; amide I:1-II:C; N-terminus assumed) ... FALSE
5) CCOc1ccc(C[C@@H](NC(=O)[C@H](N)Cc2ccccc2)C(=O)N[C@H](CC2CC2)C(=O)N[C@H](CCCCN)C(=O)N2CCC(N)(C(=O)NCCOCCOCC(=O)N[C@@H](CCCCNC(=O)COCCOCCOCCOCCNC(=O)CC[C@H](NC(=O)CCCCCCCCCCCCCCCCC(=O)O)C(=O)O)C(N)=O)CC2)cc1 [Compound 12] ... FALSE
6) CCOc1ccc(C[C@@H](NC(=O)[C@H](N)Cc2ccccc2)C(=O)N[C@H](CC(C)C)C(=O)N[C@H](CCCCN)C(=O)N2CCC(N)(C(=O)NCCOCCOCCOCCOCC(=O)N[C@@H](CCCCNC(=O)COCCOCCOCCOCCNC(=O)CC[C@H](NC(=O)CCCCCCCCCCCCCCCCC(=O)O)C(=O)O)C(N)=O)CC2)cc1 [Compound 4] ... FALSE

In: Please indicate if the recorded Relative Activity % for CCOc1ccc(C[C@@H](NC(=O)[C@H](N)Cc2ccccc2)C(=O)N[C@H](CC(C)C)C(=O)N[C@H](CCCCN)C(=O)N2CCC(N)(C(=O)NCC(=O)N[C@@H](CCCCNC(=O)COCCOCCOCCOCCNC(=O)CC[C@H](NC(=O)CCCCCCCCCCCCCCCCC(=O)O)C(=O)O)C(N)=O)CC2)cc1 [Compound 10] meets or exceeds 20%.
Out: FALSE

In: Please indicate if the recorded Relative Activity % for CCOc1ccc(C[C@@H](NC(=O)[C@H](N)Cc2ccccc2)C(=O)N[C@H](CC(C)C)C(=O)N[C@H](CCCCN)C(=O)N2CCC(N)(C(=O)N[C@@H](CCCCNC(=O)COCCOCCOCCOCCNC(=O)CC[C@H](NC(=O)CCCCCCCCCCCCCCCCC(=O)O)C(=O)O)C(N)=O)CC2)cc1 [Compound 1] meets or exceeds 20%.
Out: FALSE

In: Please indicate if the recorded Relative Activity % for COc1ccc(C[C@@H](NC(=O)[C@H](N)Cc2ccccc2)C(=O)N[C@H](CC(C)C)C(=O)N[C@H](CCCCN)C(=O)N2CCC(N)(C(=O)NCCOCCOCC(=O)N[C@@H](CCCCNC(=O)COCCOCCOCCOCCNC(=O)CC[C@H](NC(=O)CCCCCCCCCCCCCCCCC(=O)O)C(=O)O)C(N)=O)CC2)cc1 [Compound 5] meets or exceeds 20%.
Out: FALSE
